- assayed-system: CCR2 (Homo sapiens)
- Construct: Peripheral Blood Mononuclear Cells (PBMCs) prepared from normal human whole blood via density gradient centrifugation; endogenous in cells
- Sequence (P41597 1-360 isoform P41597-2): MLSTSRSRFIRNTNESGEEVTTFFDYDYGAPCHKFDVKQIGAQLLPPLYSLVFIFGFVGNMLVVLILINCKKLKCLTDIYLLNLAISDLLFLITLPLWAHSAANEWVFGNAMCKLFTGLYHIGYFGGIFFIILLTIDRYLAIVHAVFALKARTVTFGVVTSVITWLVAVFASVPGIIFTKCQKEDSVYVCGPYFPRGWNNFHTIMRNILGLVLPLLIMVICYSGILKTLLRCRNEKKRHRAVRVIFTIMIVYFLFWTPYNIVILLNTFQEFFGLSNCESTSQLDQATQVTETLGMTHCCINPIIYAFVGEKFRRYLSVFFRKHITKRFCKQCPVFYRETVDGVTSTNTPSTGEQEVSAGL
- experiment-description: CCR2 binding assay: 125I-labeled MCP-1 binding to human PBMCs
- recorded-conditions: inhibition of specific binding of 0.1 to 0.2 nM 125I-labeled MCP-1 to human PBMCs, 30 min at room temperature
pIC50: −log10 of the molar value.
outcome-measure: pIC50

A. CCn1cc(CN[C@@H]2CC[C@@](C(=O)N3CCN(c4cc(C(F)(F)F)ccn4)CC3)(C(C)C)C2)cn1 [Example 7]
B. CC(C)[C@]1(C(=O)N2CCN(c3cc(C(F)(F)F)ccn3)CC2)CC[C@@H](NCc2cnc3c(c2)NC(=O)CO3)C1 [Example 9]
Task item: // max by pIC50 over [ A , B ] Your answer should be the label of the entry you select.
Reply: B

P. COc1ccc(CN[C@@H]2CC[C@@](C(=O)N3CCN(c4cc(C(F)(F)F)ccn4)CC3)(C(C)C)C2)c(OC)c1 [Example 10]
Q. COc1cc(CN[C@@H]2CC[C@@](C(=O)N3CCN(c4cc(C(F)(F)F)ccn4)CC3)(C(C)C)C2)ccc1C [Example 31]
R. CCCNC(=O)CCC1CCCC1N[C@@H]1CC[C@@](C(=O)N2CCN(c3cc(C(F)(F)F)ccn3)CC2)(C(C)C)C1 (stereo partly drawn) [Example 17]
Task item: I would appreciate it if you could sort these 3 compounds by pIC50, starting from the smallest number. Please list the labels in the order you were asked to rank them.
Reply: P, Q, R

---

- assayed-system: CCR2 (Homo sapiens, UniProt P41597)
- Construct: Peripheral Blood Mononuclear Cells (PBMCs) prepared from normal human whole blood via density gradient centrifugation; endogenous in cells
- experiment-description: CCR2 binding assay: 125I-labeled MCP-1 binding to human PBMCs
- recorded-conditions: inhibition of specific binding of 0.1 to 0.2 nM 125I-labeled MCP-1 to human PBMCs, 30 min at room temperature
pIC50: −log10 of the molar value.
outcome-measure: pIC50

A. CC(C)[C@]1(C(=O)N2CCN(c3cc(C(F)(F)F)ccn3)CC2)CC[C@@H](NC2CCCN(c3ncccn3)C2)C1 (mixture of isomers)
B. CC#CCN1CCC(N[C@@H]2CC[C@@](C(=O)N3CCN(c4cc(C(F)(F)F)ccn4)CC3)(C(C)C)C2)CCC1=O (mixture of isomers)
C. CC(C)[C@]1(C(=O)N2CCN(c3cc(C(F)(F)F)ccn3)CC2)CC[C@@H](NC2CCc3ccccc3C2)C1 (mixture of isomers)
Task item: Hey, quick one: sort these by pIC50, largest value first please. Answer by naming the labels in the order asked.
Reply: C, A, B
(C: 6.86, A: 6.38, B: 6.18)

1. COc1ccc(CN[C@@H]2CC[C@@](C(=O)N3CCN(c4cc(C(F)(F)F)ccn4)CC3)(C(C)C)C2)cc1O
2. CC(C)[C@]1(C(=O)N2CCN(c3cc(C(F)(F)F)ccn3)CC2)CC[C@@H](NCc2ccc(F)cc2)C1
Task item: Form: Entry with minimum pIC50 (choose one): 1 / 2 Which one? Tell me its label.
Reply: 1
(1: 6.13, 2: 6.41)

---

- assayed-system: CCR2 (Homo sapiens)
- Construct: Peripheral Blood Mononuclear Cells (PBMCs) prepared from normal human whole blood via density gradient centrifugation; endogenous in cells
- Sequence (P41597 1-360 isoform P41597-2): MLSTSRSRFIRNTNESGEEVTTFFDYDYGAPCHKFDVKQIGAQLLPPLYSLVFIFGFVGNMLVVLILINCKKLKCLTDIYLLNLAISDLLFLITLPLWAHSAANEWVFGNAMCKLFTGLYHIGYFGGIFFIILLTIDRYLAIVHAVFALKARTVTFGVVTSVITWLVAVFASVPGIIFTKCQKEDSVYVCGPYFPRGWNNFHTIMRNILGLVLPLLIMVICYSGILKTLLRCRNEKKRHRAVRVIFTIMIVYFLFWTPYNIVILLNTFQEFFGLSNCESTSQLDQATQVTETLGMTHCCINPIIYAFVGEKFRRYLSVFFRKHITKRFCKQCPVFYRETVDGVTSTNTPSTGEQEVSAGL
- experiment-description: CCR2 binding assay: 125I-labeled MCP-1 binding to human PBMCs
- recorded-conditions: inhibition of specific binding of 0.1 to 0.2 nM 125I-labeled MCP-1 to human PBMCs, 30 min at room temperature
outcome-measure: IC50 (nM)

Please review the entries below; each comes with its answer.
INSERT INTO assay_data (compound, assayed_system, observed_value) VALUES
  ('CC(C)[C@]1(C(=O)N2CCN(c3cc(C(F)(F)F)ccn3)CC2)CC[C@@H](NCc2ccc(O)cc2)C1', 'CCR2 (Homo sapiens)', 470),
  ('CC(C)[C@]1(C(=O)N2CCN(c3cc(C(F)(F)F)ccn3)CC2)CC[C@@H](NC2CCS(=O)(=O)CC2)C1', 'CCR2 (Homo sapiens)', 541),
  ('CC(C)[C@]1(C(=O)N2CCN(c3cc(C(F)(F)F)ccn3)CC2)CC[C@@H](NC2CCc3cc(F)cc(F)c3C2)C1 (mixture of isomers)', 'CCR2 (Homo sapiens)', 51.7),
  ('CC(C)[C@]1(C(=O)N2CCN(c3cc(C(F)(F)F)ccn3)CC2)CC[C@@H](NC2CCC(O)(c3ccc(-c4ncccn4)cn3)CC2)C1 (some centres unmarked)', 'CCR2 (Homo sapiens)', 19.8),
  ('CC(C)[C@]1(C(=O)N2CCN(c3cc(C(F)(F)F)ccn3)CC2)CC[C@@H](NC2CCCC2)C1', 'CCR2 (Homo sapiens)', 227);

I. CC(C)NC(=O)CCC1CCCC1N[C@@H]1CC[C@@](C(=O)N2CCN(c3cc(C(F)(F)F)ccn3)CC2)(C(C)C)C1 (some centres unmarked)
II. CC1COCC(C)C1N[C@@H]1CC[C@@](C(=O)N2CCN(c3cc(C(F)(F)F)ccn3)CC2)(C(C)C)C1 (some centres unmarked)
Task item: Given the listed records, identify the one among I and II with higher IC50. Field: selected label. Fill in the label of the entry you choose.
Reply: I
(I: 273 nM, II: 10.1 nM)

I. COc1ccc(CN[C@@H]2CC[C@@](C(=O)N3CCN(c4cc(C(F)(F)F)ccn4)CC3)(C(C)C)C2)cc1OC
II. CC(C)[C@]1(C(=O)N2CCN(c3cc(C(F)(F)F)ccn3)CC2)CC[C@@H](NC2CCOC2)C1 (mixture of isomers)
Task item: Higher IC50: I or II ? Identify your pick by its label.
Reply: I
(I: 500 nM, II: 157 nM)

1. CC(C)[C@]1(C(=O)N2CCN(c3cc(C(F)(F)F)ccn3)CC2)CC[C@@H](NCc2ccc(Cl)s2)C1
2. CC(C)[C@]1(C(=O)N2CCN(c3cc(C(F)(F)F)ccn3)CC2)CC[C@@H](N(C)C2CCOC2)C1 (some centres unmarked)
Task item: Among 1 and 2 , whose measured IC50 is the smaller figure? Kindly give the label for the entry you pick.
Reply: 2

P. CC1OCCC1N[C@@H]1CC[C@@](C(=O)N2CCN(c3cc(C(F)(F)F)ccn3)CC2)(C(C)C)C1 (some centres unmarked)
Q. CC(C)[C@]1(C(=O)N2CCN(c3cc(C(F)(F)F)ccn3)CC2)CC[C@@H](NCc2ccc3[nH]ccc3c2)C1
Task item: Compare IC50: is it lower for P or for Q ? Indicate which entry you chose by stating its label.
Reply: P
